The measured values listed here are drawn from ChEMBL document CHEMBL1132218.

Listed compounds paired with reported logP
test: Partition coefficient (logP); type: physicochemical; conditions: octanol/water
Answer with a bare number; do not write a unit.

Past entries and their recorded results:
Cc1cccc(Oc2sc(C(=O)c3ccc([N+](=O)[O-])cc3)c(N)c2C#N)c1	5.03
N#Cc1c(Oc2ccccc2)sc(C(=O)c2ccc([N+](=O)[O-])cc2)c1N	4.53
Cc1cccc(Oc2sc(C(=O)c3ccccc3)c(N)c2C#N)c1	5.25
COC(=O)c1sc(Oc2cccc(C)c2)c(C#N)c1N	4.16
COC(=O)c1sc(Oc2ccccc2)c(C#N)c1N	3.66
NC(=O)c1c(Oc2ccccc2)sc(C(=O)c2ccccc2)c1N	3.6

Look up and state reported logP for N#Cc1sc(Oc2ccccc2)c(C#N)c1N
2.54

Give me measured logP, please, for this compound: N#Cc1c(Oc2ccccc2)sc(C(N)=O)c1N
2.19
